targetOrSystem: HDAC2 (Homo sapiens)
methodDescription: HDAC2 fluorescence inhibition assay (tBoc-Lys(Ac)-AMC)
Assign IC50 to each entry below.

Consider the molecule CNC(=O)c1cnn(Cc2ccc(C(=O)Nc3ccccc3N)cc2)c1 [Example 134] and give its recorded IC50. 50 to 100 nM

Consider the molecule Nc1ccccc1NC(=O)c1ccc(Cn2ncc3c(F)cccc32)cc1 [Example 48] and give its recorded IC50. 50 to 100 nM

Consider the molecule Nc1ccccc1NC(=O)c1ccc(Cn2cc3cccnc3n2)cc1 [Example 25] and give its recorded IC50. 100 to 500 nM

Consider the molecule Nc1ccccc1NC(=O)c1ccc(Cn2nc3ccccc3c2N)cc1 [Example 88] and give its recorded IC50. 50 to 100 nM

Consider the molecule Nc1ccccc1NC(=O)c1ccc(Cn2cc3cc([N+](=O)[O-])ccc3n2)cc1 [Example 8] and give its recorded IC50. ≤ 50 nM

----------
Assign pIC50 to each entry below.
targetOrSystem: HDAC2 (Homo sapiens)
methodDescription: HDAC2 fluorescence inhibition assay (tBoc-Lys(Ac)-AMC)
pIC50: −log10 of the molar value.

Consider the compound Nc1ccccc1NC(=O)c1ccc(Cn2cc(C(=O)NCCN3CCOCC3)cn2)cc1 and give its recorded pIC50. 7.00 to 7.30

Consider the compound Nc1ccccc1NC(=O)c1ccc(Cn2ncc3cc(F)ccc32)cc1 and give its recorded pIC50. 7.00 to 7.30

Consider the compound COc1ccc2c(C)n(Cc3ccc(C(=O)Nc4ccccc4N)cc3)nc2c1 and give its recorded pIC50. ≥ 7.30

Consider the compound Nc1ccccc1NC(=O)c1ccc(Cn2cc(C(=O)NCCO)cn2)cc1 and give its recorded pIC50. 7.00 to 7.30

Consider the compound Nc1ccccc1NC(=O)c1ccc(Cn2cc(C(=O)NCCCN3CCOCC3)cn2)cc1 and give its recorded pIC50. ≥ 7.30

----------
Assign pIC50 to each entry below.
targetOrSystem: HDAC2 (Homo sapiens)
methodDescription: HDAC2 fluorescence inhibition assay (tBoc-Lys(Ac)-AMC)
pIC50: −log10 of the molar value.

Consider the molecule COc1cccc2nn(Cc3ccc(C(=O)Nc4ccccc4N)cc3)cc12 and give its recorded pIC50. ≥ 7.30

Consider the molecule Nc1ccccc1NC(=O)c1ccc(Cn2ncc3cc(NC(=O)OCCN4CCOCC4)ccc32)cc1 and give its recorded pIC50. ≥ 7.30

Consider the molecule Nc1ccccc1NC(=O)c1ccc(Cn2ncc3cc(NC(=O)OCc4cccnc4)ccc32)cc1 and give its recorded pIC50. ≥ 7.30

Consider the molecule Cc1nn(Cc2ccc(C(=O)Nc3ccccc3N)cc2)c2ccc(F)cc12 and give its recorded pIC50. 6.30 to 7.00

----------
Assign IC50 to each entry below.
targetOrSystem: HDAC2 (Homo sapiens)
methodDescription: HDAC2 fluorescence inhibition assay (tBoc-Lys(Ac)-AMC)

Jot down IC50 (HDAC2 (Homo sapiens)) of Cc1nn(Cc2ccc(C(=O)Nc3ccccc3N)cc2)c2ccccc12 . 0.05 to 0.1 µM

Jot down IC50 (HDAC2 (Homo sapiens)) of Nc1ccccc1NC(=O)c1ccc(Cn2cc(C(=O)NCCN3CCNCC3)cn2)cc1 . ≤ 0.05 µM

Jot down IC50 (HDAC2 (Homo sapiens)) of Cc1c2cc(F)ccc2nn1Cc1ccc(C(=O)Nc2ccccc2N)cc1 . 0.05 to 0.1 µM

Jot down IC50 (HDAC2 (Homo sapiens)) of CCOC(=O)c1cnn(Cc2ccc(C(=O)Nc3ccccc3N)cc2)c1 . 0.05 to 0.1 µM

Jot down IC50 (HDAC2 (Homo sapiens)) of Nc1ccccc1NC(=O)c1ccc(Cn2nc(N)c3ccccc32)cc1 . 0.05 to 0.1 µM

Jot down IC50 (HDAC2 (Homo sapiens)) of Nc1ccccc1NC(=O)c1ccc(Cn2ncc3cc(NC(=O)OCc4ccccc4)ccc32)cc1 . ≤ 0.05 µM

Jot down IC50 (HDAC2 (Homo sapiens)) of Nc1ccccc1NC(=O)c1ccc(Cn2nc3ccccc3c2-c2ccccc2)cc1 . 0.05 to 0.1 µM

Jot down IC50 (HDAC2 (Homo sapiens)) of Nc1ccccc1NC(=O)c1ccc(Cn2cc(C(=O)NCC3CC3)cn2)cc1 . 0.05 to 0.1 µM

Jot down IC50 (HDAC2 (Homo sapiens)) of CC(=O)Nc1ccc2c(c1)c(N)nn2Cc1ccc(C(=O)Nc2ccccc2N)cc1 . 0.05 to 0.1 µM

----------
targetOrSystem: HDAC2 (Homo sapiens, UniProt Q92769)
Sequence (Q92769 with tags, fused parts or gaps): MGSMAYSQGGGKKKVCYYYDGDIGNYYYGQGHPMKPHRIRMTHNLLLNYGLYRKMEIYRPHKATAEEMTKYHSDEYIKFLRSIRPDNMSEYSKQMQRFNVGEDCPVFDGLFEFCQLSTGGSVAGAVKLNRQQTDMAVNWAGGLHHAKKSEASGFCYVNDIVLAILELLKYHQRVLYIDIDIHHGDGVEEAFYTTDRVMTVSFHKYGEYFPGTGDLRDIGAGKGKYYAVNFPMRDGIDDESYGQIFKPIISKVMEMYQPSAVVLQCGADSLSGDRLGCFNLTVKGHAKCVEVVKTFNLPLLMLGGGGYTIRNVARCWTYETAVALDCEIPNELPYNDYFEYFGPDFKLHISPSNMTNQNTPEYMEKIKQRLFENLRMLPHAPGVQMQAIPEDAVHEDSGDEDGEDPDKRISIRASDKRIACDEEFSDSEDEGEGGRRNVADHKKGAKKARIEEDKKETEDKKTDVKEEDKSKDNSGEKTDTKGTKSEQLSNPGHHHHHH
methodDescription: HDAC2 fluorescence inhibition assay (tBoc-Lys(Ac)-AMC)
pIC50: −log10 of the molar value.
assayMetric: pIC50

Jot down pIC50 (HDAC2 (Homo sapiens, UniProt Q92769)) of Nc1ccccc1NC(=O)c1ccc(Cn2[nH]c3ccccc3c2=O)cc1 [Example 65] . 6.30 to 7.00

Jot down pIC50 (HDAC2 (Homo sapiens, UniProt Q92769)) of Nc1ccccc1NC(=O)c1ccc(Cn2nccc2N)cc1 [Example 132] . ≤ 6.30

Jot down pIC50 (HDAC2 (Homo sapiens, UniProt Q92769)) of CN(C)C(=O)c1cnn(Cc2ccc(C(=O)Nc3ccccc3N)cc2)c1 [Example 136] . 6.30 to 7.00

Jot down pIC50 (HDAC2 (Homo sapiens, UniProt Q92769)) of Nc1ccccc1NC(=O)c1ccc(Cn2ncc3c(C(F)(F)F)cccc32)cc1 [Example 117] . 7.00 to 7.30

Jot down pIC50 (HDAC2 (Homo sapiens, UniProt Q92769)) of COc1ccc2cn(Cc3ccc(C(=O)Nc4ccccc4N)cc3)nc2c1 [Example 59] . ≥ 7.30

Jot down pIC50 (HDAC2 (Homo sapiens, UniProt Q92769)) of Nc1ccccc1NC(=O)c1ccc(Cn2ncc3cc([N+](=O)[O-])ccc32)cc1 [Example 5] . ≥ 7.30

Jot down pIC50 (HDAC2 (Homo sapiens, UniProt Q92769)) of Nc1ccccc1NC(=O)c1ccc(Cn2ccc3cccnc32)cc1 [Example 157] . 6.30 to 7.00

Jot down pIC50 (HDAC2 (Homo sapiens, UniProt Q92769)) of Nc1ccccc1NC(=O)c1ccc(Cn2cc(C(=O)NCc3cccnc3)cn2)cc1 [Example 145] . ≥ 7.30

Jot down pIC50 (HDAC2 (Homo sapiens, UniProt Q92769)) of Cc1nn(Cc2ccc(C(=O)Nc3ccccc3N)cc2)c2cc(C(F)(F)F)ccc12 [Example 93] . 7.00 to 7.30

Jot down pIC50 (HDAC2 (Homo sapiens, UniProt Q92769)) of Nc1ccccc1NC(=O)c1ccc(Cn2cc(C(=O)Nc3ccccc3)cn2)cc1 [Example 127] . ≥ 7.30

Jot down pIC50 (HDAC2 (Homo sapiens, UniProt Q92769)) of Nc1ccc(-c2ccccc2)cc1NC(=O)c1ccc(Cn2cc3cc([N+](=O)[O-])ccc3n2)cc1 [Example 17] . ≥ 7.30

Jot down pIC50 (HDAC2 (Homo sapiens, UniProt Q92769)) of Nc1ccccc1NC(=O)c1ccc(Cn2cc3c(n2)CCCC3)cc1 [Example 129] . 7.00 to 7.30

Jot down pIC50 (HDAC2 (Homo sapiens, UniProt Q92769)) of C[C@@H](c1ccc(C(=O)Nc2ccccc2N)cc1)n1cc2ccccc2n1 [Example 51] . 7.00 to 7.30

Jot down pIC50 (HDAC2 (Homo sapiens, UniProt Q92769)) of CC(=O)Nc1ccc2nn(Cc3ccc(C(=O)Nc4ccccc4N)cc3)cc2c1 [Example 4] . ≥ 7.30

Jot down pIC50 (HDAC2 (Homo sapiens, UniProt Q92769)) of CC(=O)Nc1ccc2cnn(Cc3ccc(C(=O)Nc4ccccc4N)cc3)c2c1 [Example 89] . ≥ 7.30

Jot down pIC50 (HDAC2 (Homo sapiens, UniProt Q92769)) of COc1ccc2c(cnn2Cc2ccc(C(=O)Nc3ccccc3N)cc2)c1 [Example 78] . ≥ 7.30

Jot down pIC50 (HDAC2 (Homo sapiens, UniProt Q92769)) of Nc1ccccc1NC(=O)c1ccc(Cn2cc3ccccc3n2)s1 [Example 19] . 6.30 to 7.00

Jot down pIC50 (HDAC2 (Homo sapiens, UniProt Q92769)) of Nc1ccccc1NC(=O)c1ccc(Cn2ncc3ccccc32)s1 [Example 24] . 6.30 to 7.00

Jot down pIC50 (HDAC2 (Homo sapiens, UniProt Q92769)) of Nc1ccccc1NC(=O)c1ccc(Cn2cc3cc([N+](=O)[O-])ccc3n2)s1 [Example 20] . ≥ 7.30

Jot down pIC50 (HDAC2 (Homo sapiens, UniProt Q92769)) of COCCNC(=O)c1cnn(Cc2ccc(C(=O)Nc3ccccc3N)cc2)c1 [Example 151] . 7.00 to 7.30

Jot down pIC50 (HDAC2 (Homo sapiens, UniProt Q92769)) of Cc1nn(Cc2ccc(C(=O)Nc3ccccc3N)cc2)c2cc(F)ccc12 [Example 68] . 7.00 to 7.30

Jot down pIC50 (HDAC2 (Homo sapiens, UniProt Q92769)) of Nc1ccccc1NC(=O)c1ccc(Cn2cc3c(C(F)(F)F)cccc3n2)cc1 [Example 118] . 7.00 to 7.30

Jot down pIC50 (HDAC2 (Homo sapiens, UniProt Q92769)) of COc1ccc2c(C)nn(Cc3ccc(C(=O)Nc4cc(-c5cccs5)ccc4N)cc3)c2c1 [Example 114] . 7.00 to 7.30

Jot down pIC50 (HDAC2 (Homo sapiens, UniProt Q92769)) of CCc1nn(Cc2ccc(C(=O)Nc3ccccc3N)cc2)c2ccccc12 [Example 72] . 7.00 to 7.30

Jot down pIC50 (HDAC2 (Homo sapiens, UniProt Q92769)) of Nc1ccccc1NC(=O)c1ccc(Cn2nc(-c3ccccc3)c3ccccc32)cc1 [Example 76] . 7.00 to 7.30

Jot down pIC50 (HDAC2 (Homo sapiens, UniProt Q92769)) of Nc1ccccc1NC(=O)c1ccc(Cn2ncc3ccccc32)cc1 [Example 1] . ≥ 7.30

Jot down pIC50 (HDAC2 (Homo sapiens, UniProt Q92769)) of COc1cccc2c1cnn2Cc1ccc(C(=O)Nc2ccccc2N)cc1 [Example 85] . ≥ 7.30

Jot down pIC50 (HDAC2 (Homo sapiens, UniProt Q92769)) of CC(Cn1ncc2ccccc21)c1ccc(C(=O)Nc2ccccc2N)cc1 (stereo not shown) [Example 39] . ≤ 6.30

Jot down pIC50 (HDAC2 (Homo sapiens, UniProt Q92769)) of CC(c1ccc(C(=O)Nc2ccccc2N)cc1)n1ncc2ccccc21 (stereo not shown) [Example 108] . 7.00 to 7.30

Jot down pIC50 (HDAC2 (Homo sapiens, UniProt Q92769)) of Nc1ccccc1NC(=O)c1ccc(Cn2cccn2)cc1 [Example 31] . ≤ 6.30

Jot down pIC50 (HDAC2 (Homo sapiens, UniProt Q92769)) of CCNC(=O)c1cnn(Cc2ccc(C(=O)Nc3ccccc3N)cc2)c1 [Example 135] . 7.00 to 7.30

Jot down pIC50 (HDAC2 (Homo sapiens, UniProt Q92769)) of COC(=O)Nc1ccc2nn(Cc3ccc(C(=O)Nc4ccccc4N)cc3)cc2c1 [Example 12] . ≥ 7.30

Jot down pIC50 (HDAC2 (Homo sapiens, UniProt Q92769)) of COc1cccc2cnn(Cc3ccc(C(=O)Nc4ccccc4N)cc3)c12 [Example 84] . 6.30 to 7.00

Jot down pIC50 (HDAC2 (Homo sapiens, UniProt Q92769)) of Nc1ccc2c(cnn2Cc2ccc(C(=O)Nc3ccccc3N)cc2)c1 [Example 7] . ≥ 7.30

Jot down pIC50 (HDAC2 (Homo sapiens, UniProt Q92769)) of Nc1ccccc1NC(=O)c1ccc(Cn2cc(C(=O)NCc3ccccc3)cn2)cc1 [Example 128] . ≥ 7.30

Jot down pIC50 (HDAC2 (Homo sapiens, UniProt Q92769)) of Nc1ccccc1NC(=O)c1ccc(Cn2ncc3c2CCCC3)cc1 [Example 130] . 6.30 to 7.00

Jot down pIC50 (HDAC2 (Homo sapiens, UniProt Q92769)) of Nc1ccn(Cc2ccc(C(=O)Nc3ccccc3N)cc2)n1 [Example 133] . 6.30 to 7.00

Numbers sourced from patent US7732475B2.
